Data origin, for the record: the supplement of paper PMC10567573

B1: NECAB1 (parent)
chain: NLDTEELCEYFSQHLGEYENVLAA

Variants of: B1
Experiment: protein stability index of a GFP-peptide fusion (GPS, HEK-293T) (PSI 1-6); higher = more stable;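 also: lentivirally expressed fusions sorted by FACS into six bins by GFP to DsRed ratio, PSI derived from sequencing read proportions per bin multiplied by bin number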
Conditions: c terminus: a fixed tail appended
Field: protein stability index. Provide a value for each of the variants that follow.
Lab note: jot the number down without any unit.

Per the record, `NLDTEELCEYFSQHLGEYENVTAA` has protein stability index of 4.36

Per the record, `NLDTECLCEYFSQHLGEYENVLAA` has protein stability index of 2.68

Per the record, `NLDTEFLCEYFSQHLGEYENVLAA` has protein stability index of 2.41

Per the record, `NLHTEELCEYFSQHLGEYENVLAA` has protein stability index of 2.11

Per the record, `NLDTEELCEYFSQHLGRYENVLAA` has protein stability index of 2.76

Per the record, `NLDTWELCEYFSQHLGEYENVLAA` has protein stability index of 1.98

Per the record, `NLDTEELCEYFSQHLGEQENVLAA` has protein stability index of 4.61

Per the record, `NLDTEENCEYFSQHLGEYENVLAA` has protein stability index of 4.63

Per the record, `NLDTKELCEYFSQHLGEYENVLAA` has protein stability index of 1.94

Per the record, `NLDTEELCEYFSQHLGEYENVLAG` has protein stability index of 2.22

Per the record, `NLDTEECCEYFSQHLGEYENVLAA` has protein stability index of 3.85
